- method.description: CCTE_Mundy_HCI_Cortical_Synap_Neur_Matur_NeuriteLength: CCTE's Synaptogenesis and Neurite Maturation Assay in rat cortical cells for Neurite Length, Mundy Lab (AID 2284214)
Active and inactive are the calls of the source. Rule for the calls: active = hit-call score of the fitted dose curve at least 0.9, where 1 is the maximum; inactive = score below 0.9.
I would appreciate it if you answered using one of these outcomes: yes (active), no (inactive)

Qu. Check the results log: what was the call for CN(Cc1cnc2nc(N)nc(N)c2n1)c1ccc(C(=O)N[C@@H](CCC(=O)O)C(=O)O)cc1 ?
Ans. yes

Qu. Now the same for Nc1ccn([C@@H]2O[C@H](CO)[C@@H](O)C2O)c(=O)n1 (some centres undefined)
Ans. yes

Qu. Now the same for CC(C)c1c(C(=O)Nc2ccccc2)c(-c2ccccc2)c(-c2ccc(F)cc2)n1CC[C@@H](O)C[C@@H](O)CC(=O)O
Ans. yes

Qu. Now the same for O=C1NS(=O)(=O)c2ccccc21
Ans. no

---

- method.description: CCTE_Shafer_MEA_dev_AB: CCTE's Alamar Blue Assay for Cytotoxicity in the Neural Network Formation Assay, Shafer Lab (AID 2284083);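 note: resazurin reduction fluorescence as viability of cultured neurons; twelve days of exposure from plating with re-dosing on DIV 5 and 9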
Inconclusive results are not listed. Calls of active or inactive are those of the source. How the source made its calls: active means hit-call score of the fitted dose curve at least 0.9, where 1 is the maximum; inconclusive means response in the unintended direction; inactive means score below 0.9.
I would appreciate it if you answered using one of these outcomes: active, inactive

Qu. Check the results log: what was the call for CC(=O)Nc1ccc(O)cc1 ?
Ans. inactive

Qu. Now the same for O=C(CC(=O)C(F)(F)C(F)(F)C(F)(F)F)c1cccs1
Ans. active

Qu. Now the same for CC(C)c1c(C(=O)Nc2ccccc2)c(-c2ccccc2)c(-c2ccc(F)cc2)n1CC[C@@H](O)C[C@@H](O)CC(=O)O
Ans. active

Qu. Now the same for O=P(O)(O)CCC(F)(F)C(F)(F)C(F)(F)C(F)(F)C(F)(F)C(F)(F)F
Ans. inactive

Qu. Now the same for O=P(O)(O)CCC(F)(F)C(F)(F)C(F)(F)C(F)(F)C(F)(F)C(F)(F)C(F)(F)C(F)(F)F
Ans. active

Others:
Qu. Check the results log: what was the call for CN(C)CCOC(c1ccccc1)c1ccccc1 ?
Ans. inactive

Qu. Now the same for O=C(F)C(F)(F)C(F)(F)C(F)(F)C(=O)F
Ans. inactive

Qu. Now the same for NC(C(F)(F)F)C(F)(F)F
Ans. inactive

Qu. Now the same for C=CC(F)(F)C(F)(F)C(F)(F)C(F)(F)F
Ans. inactive

Qu. Now the same for O=C(O)C(F)(F)OC(F)(F)C(F)(F)OC(F)(F)C(F)(F)OC(F)(F)C(F)(F)C(F)(F)C(F)(F)F
Ans. inactive

Qu. Now the same for O=C(OC(=O)C(F)(F)C(F)(F)F)C(F)(F)C(F)(F)F
Ans. inactive

---

- method.description: ATG_M_32_TRANS: Attagene TRANS-FACTORIAL HepG2 Assay for M32 Transcription Factor (Internal Marker) (AID 2282984);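 note: transcript level of a background control reporter unit measured by RT-PCR and capillary electrophoresis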
- stated.conditions: HepG2 Attagene TRANS M32 internal marker reporter
Inconclusive results are not listed. Active and inactive are the calls of the source. Rule for the calls: active = hit-call score of the fitted dose curve at least 0.9, where 1 is the maximum; inconclusive = response in the unintended direction; inactive = score below 0.9.
measurement.kind: outcome

Known outcome results, listed for orientation:
Qu. Value lookup for outcome; key = CC(C)(c1ccc(Oc2ccc(N)cc2)cc1)c1ccc(Oc2ccc(N)cc2)cc1
Ans. inactive

Qu. Now the same for COc1ccccc1NC(=O)c1cc2ccccc2cc1O
Ans. inactive

Qu. Now the same for c1ccc(CNc2ncnc3c2ncn3C2CCCCO2)cc1 (centres undefined)
Ans. inactive

Qu. Now the same for CCCCCCCCCCCC[N+](C)(C)Cc1ccccc1
Ans. inactive

Qu. Now the same for CC(=O)Nc1ccc(S(N)(=O)=O)cc1
Ans. inactive

Others:
Qu. Value lookup for outcome; key = O=C(C=C(O)C(F)(F)F)C(F)(F)F
Ans. inactive

Qu. Now the same for O=C(Nc1ccc(Cl)c(Cl)c1)c1cc(Cl)cc(Cl)c1O
Ans. inactive

Qu. Now the same for CCCCC(CC)C(=O)OCCOCCOCCOCCOC(=O)C(CC)CCCC (centres undefined)
Ans. inactive

Qu. Now the same for FC(F)(F)C(F)(F)C(F)(F)Br
Ans. inactive

Qu. Now the same for CCO[Si](C)(C)OCC
Ans. inactive

Qu. Now the same for CCCCC(CC)C(=O)O (centres undefined)
Ans. inactive

Qu. Now the same for COC(O)c1ccccc1 (centres undefined)
Ans. inactive

Qu. Now the same for CC1=NN(c2ccccc2)C(=O)C1
Ans. inactive
